Target: T1, PUF4 RNA-binding domain (Saccharomyces cerevisiae, UniProt P25339 537-888)
T1 sequence: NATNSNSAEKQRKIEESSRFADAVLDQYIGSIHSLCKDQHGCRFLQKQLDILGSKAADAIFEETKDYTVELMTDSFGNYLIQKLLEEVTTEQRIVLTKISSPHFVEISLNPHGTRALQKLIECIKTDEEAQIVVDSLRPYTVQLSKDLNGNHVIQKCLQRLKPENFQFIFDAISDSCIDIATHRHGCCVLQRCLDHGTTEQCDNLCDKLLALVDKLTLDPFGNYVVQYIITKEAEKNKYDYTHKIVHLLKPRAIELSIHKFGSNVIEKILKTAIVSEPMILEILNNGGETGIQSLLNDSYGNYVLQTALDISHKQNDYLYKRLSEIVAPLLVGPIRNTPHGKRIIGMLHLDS
Test: Mg; RNA-MaP; 20 mM Na-HEPES pH 7.4, 30 mM KOAc, 0.75 mM MgCl2, 0.1% Tween-20, 5% glycerol, 0.1 mg/mL BSA, 2 mM DTT; 25 C; 0.0125-409.6 nM protein
Conditions: tags: N-His6-TEV cleaved; C-SNAP kept, Cy3B-labelled; label: tethered on chip by stalled RNA polymerase
Below, each entry is listed alongside its reported Kd.

Below: 5 binders and their reported Kd.
[[record]]
binder = "Ib_S2_P4E.1_K4.1_C4.1_H4.1_A4.1_[T5A]_[T7A]_F4.1_T4.1 (ssRNA) RNA: UUUGAUUAAUAUGAUAUCGUUCUUUCUUGUAAAAUAUUCUUUCUCGAUAUCAUAUUAAUCUUU"
value = "1.83 nM"

[[record]]
binder = "Id_ii_S4_P4E.3_K4.2_C4.2_[T-1G]_H4.2_A4.1_F4.1_T4.2_[G10T]_[T11C] (ssRNA) RNA: UUUGACAACUGAUCGUUCUUUCUCGUAUAUAUUAUCUUCUUUCUCGAUCAGUUGUCUUU"
value = "13.1 nM"

[[record]]
binder = "Ic_S2_P5E.1_K5.1_C5.1_H5.1_A5.1_[T5A]_[T6C]_[A7T]_F5.1_[T8A]_[T9G]_[A10T]_T5.1 (ssRNA) RNA: UUUGAUUAAUAUGAUAUCGUUCUUUCUUGUAACUAGUUUCUUUCUCGAUAUCAUAUUAAUCUUU"
value = "737 nM"

[[record]]
binder = "ACAAACUAUAUAUUAUUACAACAAAC (ssRNA) [Id_ii_S3_P5E.3_K5.2_C5.2_[C-2T]_[T-1A]_H5.2_A5.1_F5.1_T5.2_[T11C]]"
value = "13.5 nM"

[[record]]
binder = "ACAAACUGACACUAUAAGACAAAC (ssRNA) [Id_ii_S3_P3E.4_K3.3_C3.2_[C-2T]_[T-1G]_H3.3_A3.1_F3.1_T3.2_[T9A]_[A10G]]"
value = "> 2300 nM"


INPUT: Return reported Kd; argument: Ic_S2_P5E.1_K5.1_C5.1_H5.1_A5.1_[T5C]_[T6C]_F5.1_[T9A]_[A10C]_T5.1 (ssRNA) RNA: UUUGAUUAAUAUGAUAUCGUUCUUUCUUGUACCAUACUUCUUUCUCGAUAUCAUAUUAAUCUUU
OUTPUT: 1.13 nM

INPUT: Return reported Kd; argument: UCUCUUUGUAGCAAAUCUCUU (ssRNA) [Ic_S1_P4E.1_K4.1_C4.1_H4.1_A4.1_[T5G]_[A6C]_[T7A]_F4.1_[T8A]_T4.1]
OUTPUT: 833 nM

INPUT: Return reported Kd; argument: UCUCUUUGUAUCUUUCUCUU (ssRNA) [Ic_S1_P3E.1_K3.1_C3.1_H3.1_A3.1_[A6C]_F3.1_[A8T]_T3.1]
OUTPUT: 32.3 nM

INPUT: Return reported Kd; argument: Id_ii_S2_P3E.2_K3.1_C3.2_[C-2A]_H3.1_A3.1_F3.1_T3.2_[A10T] (ssRNA) RNA: UUUGAUUAAUAUGAUAUCGUUCUUUCUAUUGUAUAUAUUUUCUUUCUCGAUAUCAUAUUAAUCUUU
OUTPUT: 3.05 nM

INPUT: Return reported Kd; argument: Ic_S4_P4E.1_K4.1_C4.1_H4.1_A4.1_[T5A]_[T7C]_F4.1_[T8G]_[A9T]_T4.1 (ssRNA) RNA: UUUGACAACUGAUCGUUCUUUCUUGUAAACGUUUCUUUCUCGAUCAGUUGUCUUU
OUTPUT: 506 nM
